Hey, just so you know, these numbers are from patent US20210070748A1.

Measured IC50 values are reported for all entries that follow.
Target: JAK3 (Homo sapiens)
Sequence (P52333 whole entry): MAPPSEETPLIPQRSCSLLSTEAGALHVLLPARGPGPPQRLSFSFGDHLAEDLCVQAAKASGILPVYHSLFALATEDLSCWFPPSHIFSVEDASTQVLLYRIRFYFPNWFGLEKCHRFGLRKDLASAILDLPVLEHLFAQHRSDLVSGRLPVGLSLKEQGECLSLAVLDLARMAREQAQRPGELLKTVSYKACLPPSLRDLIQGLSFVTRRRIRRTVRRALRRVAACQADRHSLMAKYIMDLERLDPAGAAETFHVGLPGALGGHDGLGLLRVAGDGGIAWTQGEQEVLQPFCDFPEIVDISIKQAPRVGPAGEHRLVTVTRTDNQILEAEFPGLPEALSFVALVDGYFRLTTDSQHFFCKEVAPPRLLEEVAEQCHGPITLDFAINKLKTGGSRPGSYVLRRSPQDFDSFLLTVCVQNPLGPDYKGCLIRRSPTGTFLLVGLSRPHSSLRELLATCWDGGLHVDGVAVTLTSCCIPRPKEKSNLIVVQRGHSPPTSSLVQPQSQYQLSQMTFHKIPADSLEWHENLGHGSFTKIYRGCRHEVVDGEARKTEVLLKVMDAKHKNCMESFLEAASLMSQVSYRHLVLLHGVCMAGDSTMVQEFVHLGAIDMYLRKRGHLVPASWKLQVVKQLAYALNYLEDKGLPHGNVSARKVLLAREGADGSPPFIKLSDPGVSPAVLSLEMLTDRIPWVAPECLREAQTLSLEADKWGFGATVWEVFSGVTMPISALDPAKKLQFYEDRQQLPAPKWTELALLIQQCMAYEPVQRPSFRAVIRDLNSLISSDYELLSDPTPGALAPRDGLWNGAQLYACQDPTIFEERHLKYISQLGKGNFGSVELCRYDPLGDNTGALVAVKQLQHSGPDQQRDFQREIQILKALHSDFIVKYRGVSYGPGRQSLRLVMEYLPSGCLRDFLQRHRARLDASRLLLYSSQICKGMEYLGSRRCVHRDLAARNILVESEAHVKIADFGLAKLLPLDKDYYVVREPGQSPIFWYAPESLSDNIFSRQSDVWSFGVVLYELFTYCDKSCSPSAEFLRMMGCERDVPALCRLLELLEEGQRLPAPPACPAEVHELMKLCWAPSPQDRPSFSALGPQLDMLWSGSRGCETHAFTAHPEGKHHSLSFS
Assay: Inhibition of a panel of kinases, in vitro HotSpot kinase assay: JAK3
Format: biochemical
Details: D-compounds panel data; 1 μM ATP; read-out: IC50 JAK3
Measured Endpoint: IC50

C[C@@H]1[C@H](NC(=O)c2ccc(C(C)(O)C(F)(F)F)cc2)CCCN1c1cnc(C(N)=O)c(Nc2cnn(C)c2)n1 (single isomer, unassigned) [Example D-213] | 1000 to 10000 nM
CN1CCN(Cc2ccc(Nc3nc(N4CCC[C@@H](n5ccc6cc(C7CC7)ccc6c5=O)C4)cnc3C(N)=O)cc2)CC1 [Example D-167] | 100 to 1000 nM
CN1CCN(c2ccc(Nc3cc(N4CCC[C@@H](n5ccc6cc(C7CC7)ccc6c5=O)C4)cnc3C(N)=O)cc2)CC1 [Example D-178] | > 10000 nM
C[C@@H]1[C@H](NC(=O)c2ccc(C3CC3)cc2)CCCN1c1cnc(C(N)=O)c(Nc2cnn(C3CCNCC3)c2)n1 [Example D-280] | 1000 to 10000 nM
C[C@@H]1[C@H](NC(=O)Nc2cccnc2)CCCN1c1cnc(C(N)=O)c(Nc2ccc(C3(C)CCN(C4CCCC4)CC3)cc2)n1 [Example D-9] | 100 to 1000 nM
C[C@@H]1[C@H](NC(=O)N(C)C)CCCN1c1nnc(C(N)=O)c(Nc2cnn(C)c2)n1 [Example D-286] | 1000 to 10000 nM
C[C@@H]1[C@H](NC(=O)c2ccc(C3CC3)cc2)CCCN1c1cnc(C(N)=O)c(Nc2cc(CN3CCCCC3)ns2)n1 [Example D-140] | 100 to 1000 nM
C[C@@H]1[C@H](NC(=O)c2ccc(N(C)C)cc2)CCCN1c1cnc(C(N)=O)c(Nc2ccc(N3CCN(C)CC3)cc2)n1 [Example D-196] | 100 to 1000 nM
C[C@@H]1[C@H](NC(=O)c2ccc(C3CC3)cc2F)CCCN1c1cnc(C(N)=O)c(Nc2ccc(S(=O)(=O)N3CCN(C)CC3)cc2)n1 [Example D-130] | > 10000 nM
C[C@@H]1[C@H](NC(=O)c2ccc(C3CC3)cc2)CCCN1c1cnc(C(N)=O)c(Nc2cnn(C)c2)c1 [Example D-207] | 100 to 1000 nM
C[C@@H]1CC[C@H](NC(=O)N(C)C)CN1c1cnc(C(N)=O)c(Nc2cnn(C)c2)n1 [Example D-151] | > 10000 nM
C[C@@H]1[C@H](NC(=O)c2ccc(C3CC3)cc2)CCCN1c1cnc(C(N)=O)c(Nc2ccc(N3CCC(C(C)(C)O)CC3)cc2)n1 [Example D-100] | 1000 to 10000 nM
C[C@@H]1[C@H](NC(=O)c2ccc(C3CC3)cc2)CCCN1c1cnc(C(N)=O)c(NCC2=CCN(C)CC2)n1 [Example D-300] | > 10000 nM
C[C@@H]1[C@H](NC(=O)N(C)C)CCCN1c1cnc(C(N)=O)c(Nc2ccc(N3CCN(C)CC3)cn2)n1 [Example D-180] | > 10000 nM
C[C@@H]1[C@H](NC(=O)c2ccc(C3CC3)cc2F)CCCN1c1cnc(C(N)=O)c(Nc2ccc(CN3CCN(C)CC3)cc2)n1 [Example D-113] | 100 to 1000 nM
C[C@@H]1[C@H](NC(=O)c2ccc(C3CC3)cc2F)CCCN1c1cnc(C(N)=O)c(Nc2ccc(N3CCN(C)CC3)cn2)n1 [Example D-8] | > 10000 nM
C[C@@H]1[C@H](NC(=O)c2ccc(C3CC3)cc2)CCCN1c1cnc(C(N)=O)c(Nc2ccc(OC3CCN(C)CC3)cc2)n1 [Example D-89] | 100 to 1000 nM
Cc1cc(Nc2nc(N3CCC[C@@H](n4ccc5cc(C6CC6)ccc5c4=O)C3)cnc2C(N)=O)sn1 [Example D-166] | > 10000 nM
C[C@@H]1[C@H](NC(=O)c2cnn(C(C)(C)C)c2)CCCN1c1cnc(C(N)=O)c(Nc2cnn(C)c2)n1 [Example D-57] | 1000 to 10000 nM
C[C@@H]1[C@H](NC(=O)c2ccc(C3CC3)cc2)CCCN1c1cnc(C(N)=O)c(Nc2cnn(C)c2)n1 [Example D-135] | 1000 to 10000 nM
C[C@@H]1[C@H](NC(=O)c2ccc(C(C)(C)C)cc2F)CCCN1c1cnc(C(N)=O)c(Nc2cnn(C)c2)n1 [Example D-223] | > 10000 nM
